# optical density per entry
# system-name: mouse ACVR2A (mouse, UniProt P27038 20-135, limits assumed); also: test concentration or dose not given here
# Sequence (P27038 20-135 limits assumed): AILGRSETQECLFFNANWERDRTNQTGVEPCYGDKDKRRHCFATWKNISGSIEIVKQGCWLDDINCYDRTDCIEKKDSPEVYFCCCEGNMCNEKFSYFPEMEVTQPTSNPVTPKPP
# assay-explanation: ELISA

binder	units-symbol	optical density
367_F10 (antibody, V domains shown, Group II) VH: EVQLLESGGGLVQPGGSLRLSCAASGFTFDSYGMNWVRQAPGKGLEWVSGINYNSGYTSYADSVKGRFTISRDNSKNTLYLQMNSLRAEDTAVYYCARAATWHDTHLDYWGQGTLVTVSS VL: DIQMTQSPSSLSASVGDRVTITCRASQSILTYLNWYQQKPGKAPKLLIYAATSRASGVPSRFSGSGSGTDFTLTISSLQPEDFATYYCQQSYDTPLTFGGGTKVEIK	OD	2.36
367_H01 (antibody, V domains shown, Group I) VH: EVQLLESGGGLVQPGGSLRLSCAASGFTFDSYGMNWVRQAPGKGLEWVSGINYNGGYKSYADSVKGRFTISRDNSKNTLYLQMNSLRAEDTAVYYCARAANWHDTALDYWGQGTLVTVSS VL: DIQMTQSPSSLSASVGDRVTITCRASQSILTYLNWYQQKPGKAPKLVIYAATSRASGVPSRFSGSGSGTDFTLTISSLQPEDFATYYCQQSYDNPLTFGGGTKVEIK	OD	2.69
367_F08 (antibody, V domains shown, Group II) VH: EVQLLESGGGLVQPGGSLRLSCAASGFTFSSYGMHWVRQAPGKGLEWVSSINYNSGYTSYADSVKGRFTISRDNSKNTLYLQMNSLRAEDTAVYYCARAATWHDTHLDYWGQGTLVTVSS VL: DIQMTQSPSSLSASVGDRVTITCRASQSILSYVNWYQQKPGKAPKLVIYAATSRASGVPSRFSGSGSGTDFTLTISSLQPEDFATYYCQQSNELPLTFGGGTKVEIK	OD	2.19
376_G02 (antibody, V domains shown, Group I) VH: EVQLLESGGGLVQPGGSLRLSCAASGFTFSDYGMNWVRQAPGKGLEWVSGINYNGGYTSYADSVKGRFTISRDNSKNTLYLQMNSLRAEDTAVYYCARAANWHDTALDYWGQGTLVTVSS VL: DIQMTQSPSSLSASVGDRVTITCRASQSISRYLNWYQQKPGKAPKLVIYAATSLASGVPSRFSGSGSGTDFTLTISSLQPEDFATYYCQQSYDNPLTFGGGTKVEIK	OD	3.7
